relative viability values for the molecules below.
System: NCI-H1793
Experiment: relative viability (nuclei count vs DMSO), 5 days (fraction); higher = more cells survive
Settings: first compound 0.01581 µM
measuredParameter: relative viability

- Nc1ccn([C@@H]2O[C@H](CO)[C@@H](O)[C@@H]2O)c(=O)n1 [Cytarabine] + CC(=O)Nc1cccc(-n2c(=O)n(C3CC3)c(=O)c3c(Nc4ccc(I)cc4F)n(C)c(=O)c(C)c32)c1 [Trametinib] (partner 0.02 µM): 0.405
- COc1cc2nccc(Oc3ccc(NC(=O)Nc4cc(C)on4)c(Cl)c3)c2cc1OC [Tivozanib] + COc1cccc2cc(-c3nc([C@H]4CC[C@H](C(=O)O)CC4)n4ncnc(N)c34)[nH]c12 [OSI-027] (partner 0.5 µM): 0.219
- COc1cc2nccc(Oc3ccc(NC(=O)Nc4cc(C)on4)c(Cl)c3)c2cc1OC [Tivozanib] + N=C(N)NC(=N)NCCc1ccccc1 [Phenformin] (partner 250 µM): 0.352
- Nc1ccn([C@@H]2O[C@H](CO)[C@@H](O)[C@@H]2O)c(=O)n1 [Cytarabine] + O=C(CCCCCCC(=O)Nc1ccccc1)NO [Vorinostat] (partner 1 µM): 0.607
- COc1cc2nccc(Oc3ccc(NC(=O)Nc4cc(C)on4)c(Cl)c3)c2cc1OC [Tivozanib] + CC(=O)Nc1cccc(-n2c(=O)n(C3CC3)c(=O)c3c(Nc4ccc(I)cc4F)n(C)c(=O)c(C)c32)c1 [Trametinib] (partner 0.02 µM): 0.457

----------
System: SW 1573
Assay: relative viability (nuclei count vs DMSO), 5 days (fraction); higher = more cells survive
Settings: first compound 0.253 µM
// assign true if relative viability falls strictly below 0.8, else false (ties count as false)

• Cc1cnc(-c2cnc(NCCNc3ccc(C#N)cn3)nc2-c2ccc(Cl)cc2Cl)[nH]1 + CS(=O)(=O)CCNCc1ccc(-c2ccc3ncnc(Nc4ccc(OCc5cccc(F)c5)c(Cl)c4)c3c2)o1 [Lapatinib] (partner 2 µM) = false
• Cc1cnc(-c2cnc(NCCNc3ccc(C#N)cn3)nc2-c2ccc(Cl)cc2Cl)[nH]1 + Cc1nc(Nc2ncc(C(=O)Nc3c(C)cccc3Cl)s2)cc(N2CCN(CCO)CC2)n1 [Dasatinib] (partner 0.075 µM) = true
• O=c1[nH]c2ccccc2n1C1CCN(CCCC(c2ccc(F)cc2)c2ccc(F)cc2)CC1 [Pimozide] + N=C(N)NC(=N)NCCc1ccccc1 [Phenformin] (partner 250 µM) = true

----------
System: NCI-H2405
Assay: relative viability (nuclei count vs DMSO), 5 days (fraction); higher = more cells survive
Details: first compound 0.8 µM
measuredParameter: relative viability

- Cc1cnc(-c2cnc(NCCNc3ccc(C#N)cn3)nc2-c2ccc(Cl)cc2Cl)[nH]1 + Cc1cc(Nc2cc(N3CCN(C)CC3)nc(Sc3ccc(NC(=O)C4CC4)cc3)n2)n[nH]1 [Tozasertib] (partner 0.1 µM): 0.714
- O=c1[nH]c2ccccc2n1C1CCN(CCCC(c2ccc(F)cc2)c2ccc(F)cc2)CC1 [Pimozide] + CCNC(=O)c1noc(-c2cc(C(C)C)c(O)cc2O)c1-c1ccc(CN2CCOCC2)cc1 [Luminespib] (partner 0.01 µM): 0.618
- O=c1[nH]c2ccccc2n1C1CCN(CCCC(c2ccc(F)cc2)c2ccc(F)cc2)CC1 [Pimozide] + COc1cccc2cc(-c3nc([C@H]4CC[C@H](C(=O)O)CC4)n4ncnc(N)c34)[nH]c12 [OSI-027] (partner 0.5 µM): 0.689
- O=c1[nH]c2ccccc2n1C1CCN(CCCC(c2ccc(F)cc2)c2ccc(F)cc2)CC1 [Pimozide] + CC(=O)c1c(C)c2cnc(Nc3ccc(N4CCNCC4)cn3)nc2n(C2CCCC2)c1=O [Palbociclib] (partner 0.5 µM): 0.478

----------
Tested on: NCI-H1437
Assay: relative viability (nuclei count vs DMSO), 5 days (fraction); higher = more cells survive
Details: first compound 0.04 µM
Kindly apply the following: y if relative viability is less than 0.8, n in every other case.

• Cc1sc2c(c1C)C(c1ccc(Cl)cc1)=N[C@@H](CC(=O)OC(C)(C)C)c1nnc(C)n1-2 [JQ1] + CS(=O)(=O)CCNCc1ccc(-c2ccc3ncnc(Nc4ccc(OCc5cccc(F)c5)c(Cl)c4)c3c2)o1 [Lapatinib] (partner 2 µM) = y
• Cc1sc2c(c1C)C(c1ccc(Cl)cc1)=N[C@@H](CC(=O)OC(C)(C)C)c1nnc(C)n1-2 [JQ1] + Cc1nc(Nc2ncc(C(=O)Nc3c(C)cccc3Cl)s2)cc(N2CCN(CCO)CC2)n1 [Dasatinib] (partner 0.075 µM) = y
• Cc1sc2c(c1C)C(c1ccc(Cl)cc1)=N[C@@H](CC(=O)OC(C)(C)C)c1nnc(C)n1-2 [JQ1] + CC(=O)c1c(C)c2cnc(Nc3ccc(N4CCNCC4)cn3)nc2n(C2CCCC2)c1=O [Palbociclib] (partner 0.5 µM) = y
• Cc1sc2c(c1C)C(c1ccc(Cl)cc1)=N[C@@H](CC(=O)OC(C)(C)C)c1nnc(C)n1-2 [JQ1] + C[C@@H](Oc1cc(-c2cnn(C3CCNCC3)c2)cnc1N)c1c(Cl)ccc(F)c1Cl [Crizotinib] (partner 1 µM) = n
• Cc1sc2c(c1C)C(c1ccc(Cl)cc1)=N[C@@H](CC(=O)OC(C)(C)C)c1nnc(C)n1-2 [JQ1] + CC1(C)CCC(c2ccc(Cl)cc2)=C(CN2CCN(c3ccc(C(=O)NS(=O)(=O)c4ccc(N[C@H](CCN5CCOCC5)CSc5ccccc5)c(S(=O)(=O)C(F)(F)F)c4)cc3)CC2)C1 [Navitoclax] (partner 0.5 µM) = n
• Cc1sc2c(c1C)C(c1ccc(Cl)cc1)=N[C@@H](CC(=O)OC(C)(C)C)c1nnc(C)n1-2 [JQ1] + COc1cc2c(Oc3ccc(NC(=O)C4(C(=O)Nc5ccc(F)cc5)CC4)cc3F)ccnc2cc1OCCCN1CCOCC1 [Foretinib] (partner 0.25 µM) = n

----------
Tested on: HARA
Test: relative viability (nuclei count vs DMSO), 5 days (fraction); higher = more cells survive
Conditions: first compound 0.253 µM
measuredParameter: relative viability

- O=c1[nH]c2ccccc2n1C1CCN(CCCC(c2ccc(F)cc2)c2ccc(F)cc2)CC1 [Pimozide] + Cc1nc(NC(=O)N2CCC[C@H]2C(N)=O)sc1-c1ccnc(C(C)(C)C(F)(F)F)c1 [Alpelisib] (partner 2 µM): 0.829
- Cc1cnc(-c2cnc(NCCNc3ccc(C#N)cn3)nc2-c2ccc(Cl)cc2Cl)[nH]1 + C[C@]1(O)C[C@@H](c2nc(-c3ccc4ccc(-c5ccccc5)nc4c3)c3c(N)nccn32)C1 [Linsitinib] (partner 1 µM): 0.847
- Cc1cnc(-c2cnc(NCCNc3ccc(C#N)cn3)nc2-c2ccc(Cl)cc2Cl)[nH]1 + CC(=O)Nc1cccc(-n2c(=O)n(C3CC3)c(=O)c3c(Nc4ccc(I)cc4F)n(C)c(=O)c(C)c32)c1 [Trametinib] (partner 0.02 µM): 0.68
- Cc1cnc(-c2cnc(NCCNc3ccc(C#N)cn3)nc2-c2ccc(Cl)cc2Cl)[nH]1 + CS(=O)(=O)N1CCN(Cc2cc3nc(-c4cccc5[nH]ncc45)nc(N4CCOCC4)c3s2)CC1 [Pictilisib] (partner 1 µM): 0.414

----------
System: EMC-BAC-2
Assay: relative viability (nuclei count vs DMSO), 5 days (fraction); higher = more cells survive
Details: first compound 1.265 µM
measuredParameter: relative viability

- Cc1sc2c(c1C)C(c1ccc(Cl)cc1)=N[C@@H](CC(=O)OC(C)(C)C)c1nnc(C)n1-2 [JQ1] + O=C(CCCCCCC(=O)Nc1ccccc1)NO [Vorinostat] (partner 1 µM): 0.281
- Cc1sc2c(c1C)C(c1ccc(Cl)cc1)=N[C@@H](CC(=O)OC(C)(C)C)c1nnc(C)n1-2 [JQ1] + C[C@@H](Oc1cc(-c2cnn(C3CCNCC3)c2)cnc1N)c1c(Cl)ccc(F)c1Cl [Crizotinib] (partner 1 µM): 0.43
- Cc1sc2c(c1C)C(c1ccc(Cl)cc1)=N[C@@H](CC(=O)OC(C)(C)C)c1nnc(C)n1-2 [JQ1] + CC(C)C[C@H](NC(=O)[C@H](Cc1ccccc1)NC(=O)c1cnccn1)B(O)O [Bortezomib] (partner 0.002 µM): 0.621
- Cc1sc2c(c1C)C(c1ccc(Cl)cc1)=N[C@@H](CC(=O)OC(C)(C)C)c1nnc(C)n1-2 [JQ1] + O=C(c1cc(Cc2n[nH]c(=O)c3ccccc23)ccc1F)N1CCN(C(=O)C2CC2)CC1 [Olaparib] (partner 8 µM): 0.32
- Cc1sc2c(c1C)C(c1ccc(Cl)cc1)=N[C@@H](CC(=O)OC(C)(C)C)c1nnc(C)n1-2 [JQ1] + N=C(N)NC(=N)NCCc1ccccc1 [Phenformin] (partner 250 µM): 0.267
- Cc1sc2c(c1C)C(c1ccc(Cl)cc1)=N[C@@H](CC(=O)OC(C)(C)C)c1nnc(C)n1-2 [JQ1] + CS(=O)(=O)CCNCc1ccc(-c2ccc3ncnc(Nc4ccc(OCc5cccc(F)c5)c(Cl)c4)c3c2)o1 [Lapatinib] (partner 2 µM): 0.551
